Recorded values, source patent USRE48335E1.

Tested on: Enterobacter cloacae
Details: Enterobacter cloacae FADDI-EC001; broth microdilution in CAMHB
Positions of bridges follow the written chain, without caps; N, C: chain ends. Non-standard residues stand in square brackets, D forms with d. Residues, ends and D or L forms follow the SMILES beside them. *: point of attachment. Dab = NCC[C@H](N)C(=O)O; PhAc = O=C(Cc1ccccc1)*
Quantity: Minimum inhibitory concentration, Ec FADDI-EC001 (µg/mL)
Numbers only, in µg/mL.

Which measured Minimum inhibitory concentration, Ec FADDI-EC001 belongs to CC(C)C[C@H]1NC(=O)[C@H](CCN)NC(=O)[C@@H](NC(=O)[C@@H](CO)NC(=O)[C@@H](NC(=O)[C@H](CCN)NC(=O)Cc2ccccc2)[C@@H](C)O)CCNC(=O)[C@H]([C@@H](C)O)NC(=O)[C@H](CCN)NC(=O)[C@H](CCN)NC(=O)[C@H]([C@@H](C)O)NC1=O [Compound 12] (PhAc-[Dab]T[dS][Dab][Dab][dL]T[Dab][Dab]T; lactam 4-C) , tested on Enterobacter cloacae?
0.25

====

Kindly supply the reported Minimum inhibitory concentration, Ec FADDI-EC003 values for the records listed here.
Tested on: Enterobacter cloacae
Details: Enterobacter cloacae FADDI-EC003; broth microdilution in CAMHB
Positions of bridges follow the written chain, without caps; N, C: chain ends. Non-standard residues stand in square brackets, D forms with d. Residues, ends and D or L forms follow the SMILES beside them. *: point of attachment. Benzoyl(3,5-Cl2) = O=C(c1cc(Cl)cc(Cl)c1)*; Benzoyl(4-Ph) = O=C(c1ccc(-c2ccccc2)cc1)*; Phenylacetyl(3-Cl) = O=C(Cc1cccc(Cl)c1)*; Benzoyl(3-Cl) = O=C(c1cccc(Cl)c1)*; Dab = NCC[C@H](N)C(=O)O; Abu = CC[C@H](N)C(=O)O; Dap = NC[C@H](N)C(=O)O; PhAc = O=C(Cc1ccccc1)*
Answers are plain numbers, in µg/mL.

Compound | Result
CC[C@@H]1NC(=O)[C@@H](CC(C)C)NC(=O)[C@H](CCN)NC(=O)[C@@H](NC(=O)[C@H](CN)NC(=O)[C@@H](NC(=O)[C@H](CCN)NC(=O)c2cc(Cl)cc(Cl)c2)[C@@H](C)O)CCNC(=O)[C@H]([C@@H](C)O)NC(=O)[C@H](CCN)NC(=O)[C@H](CCN)NC1=O [Compound 96] ({Benzoyl(3,5-Cl2)}-[Dab]T[Dap][Dab][Dab][dL][Abu][Dab][Dab]T; lactam 4-C) | 1

Below is a list of compounds. For each, state its recorded Minimum inhibitory concentration, Ec FADDI-EC003.
1. CC(C)C[C@H]1NC(=O)[C@H](CCN)NC(=O)[C@@H](NC(=O)[C@H](CN)NC(=O)[C@@H](NC(=O)[C@H](CCN)NC(=O)Cc2cccc(Cl)c2)[C@@H](C)O)CCNC(=O)[C@H]([C@@H](C)O)NC(=O)[C@H](CCN)NC(=O)[C@H](CCN)NC(=O)[C@H]([C@@H](C)O)NC1=O [Compound 61] ({Phenylacetyl(3-Cl)}-[Dab]T[Dap][Dab][Dab][dL]T[Dab][Dab]T; lactam 4-C)
2. CC(C)C[C@H]1NC(=O)[C@H](CCN)NC(=O)[C@@H](NC(=O)[C@H](CN)NC(=O)[C@@H](NC(=O)[C@H](CCN)NC(=O)c2cc(Cl)cc(Cl)c2)[C@@H](C)O)CCNC(=O)[C@H]([C@@H](C)O)NC(=O)[C@H](CCN)NC(=O)[C@H](CCN)NC(=O)[C@H]([C@@H](C)O)NC1=O [Compound 118] ({Benzoyl(3,5-Cl2)}-[Dab]T[Dap][Dab][Dab][dL]T[Dab][Dab]T; lactam 4-C)
3. CC(C)C[C@H]1NC(=O)[C@H](CCN)NC(=O)[C@@H](NC(=O)[C@@H](CO)NC(=O)[C@@H](NC(=O)[C@H](CCN)NC(=O)Cc2ccccc2)[C@@H](C)O)CCNC(=O)[C@H]([C@@H](C)O)NC(=O)[C@H](CCN)NC(=O)[C@H](CCN)NC(=O)[C@H]([C@@H](C)O)NC1=O [Compound 12] (PhAc-[Dab]T[dS][Dab][Dab][dL]T[Dab][Dab]T; lactam 4-C)
4. CC[C@@H]1NC(=O)[C@@H](CC(C)C)NC(=O)[C@H](CCN)NC(=O)[C@@H](NC(=O)[C@H](CN)NC(=O)[C@@H](NC(=O)[C@H](CCN)NC(=O)c2cccc(Cl)c2)[C@@H](C)O)CCNC(=O)[C@H]([C@@H](C)O)NC(=O)[C@H](CCN)NC(=O)[C@H](CCN)NC1=O [Compound 88] ({Benzoyl(3-Cl)}-[Dab]T[Dap][Dab][Dab][dL][Abu][Dab][Dab]T; lactam 4-C)
5. CC(C)C[C@H]1NC(=O)[C@H](CCN)NC(=O)[C@@H](NC(=O)[C@H](CCN)NC(=O)[C@@H](NC(=O)[C@H](CCN)NC(=O)c2ccc(-c3ccccc3)cc2)[C@@H](C)O)CCNC(=O)[C@H]([C@@H](C)O)NC(=O)[C@H](CCN)NC(=O)[C@H](CCN)NC(=O)[C@H]([C@@H](C)O)NC1=O [Compound 29] ({Benzoyl(4-Ph)}-[Dab]T[Dab][Dab][Dab][dL]T[Dab][Dab]T; lactam 4-C)

1: 0.25; 2: 0.25; 3: 0.5; 4: 0.25; 5: 1
